What follows is a collection of pIC50 values obtained with UniProt:P04293.
Sequence (P04293 whole entry): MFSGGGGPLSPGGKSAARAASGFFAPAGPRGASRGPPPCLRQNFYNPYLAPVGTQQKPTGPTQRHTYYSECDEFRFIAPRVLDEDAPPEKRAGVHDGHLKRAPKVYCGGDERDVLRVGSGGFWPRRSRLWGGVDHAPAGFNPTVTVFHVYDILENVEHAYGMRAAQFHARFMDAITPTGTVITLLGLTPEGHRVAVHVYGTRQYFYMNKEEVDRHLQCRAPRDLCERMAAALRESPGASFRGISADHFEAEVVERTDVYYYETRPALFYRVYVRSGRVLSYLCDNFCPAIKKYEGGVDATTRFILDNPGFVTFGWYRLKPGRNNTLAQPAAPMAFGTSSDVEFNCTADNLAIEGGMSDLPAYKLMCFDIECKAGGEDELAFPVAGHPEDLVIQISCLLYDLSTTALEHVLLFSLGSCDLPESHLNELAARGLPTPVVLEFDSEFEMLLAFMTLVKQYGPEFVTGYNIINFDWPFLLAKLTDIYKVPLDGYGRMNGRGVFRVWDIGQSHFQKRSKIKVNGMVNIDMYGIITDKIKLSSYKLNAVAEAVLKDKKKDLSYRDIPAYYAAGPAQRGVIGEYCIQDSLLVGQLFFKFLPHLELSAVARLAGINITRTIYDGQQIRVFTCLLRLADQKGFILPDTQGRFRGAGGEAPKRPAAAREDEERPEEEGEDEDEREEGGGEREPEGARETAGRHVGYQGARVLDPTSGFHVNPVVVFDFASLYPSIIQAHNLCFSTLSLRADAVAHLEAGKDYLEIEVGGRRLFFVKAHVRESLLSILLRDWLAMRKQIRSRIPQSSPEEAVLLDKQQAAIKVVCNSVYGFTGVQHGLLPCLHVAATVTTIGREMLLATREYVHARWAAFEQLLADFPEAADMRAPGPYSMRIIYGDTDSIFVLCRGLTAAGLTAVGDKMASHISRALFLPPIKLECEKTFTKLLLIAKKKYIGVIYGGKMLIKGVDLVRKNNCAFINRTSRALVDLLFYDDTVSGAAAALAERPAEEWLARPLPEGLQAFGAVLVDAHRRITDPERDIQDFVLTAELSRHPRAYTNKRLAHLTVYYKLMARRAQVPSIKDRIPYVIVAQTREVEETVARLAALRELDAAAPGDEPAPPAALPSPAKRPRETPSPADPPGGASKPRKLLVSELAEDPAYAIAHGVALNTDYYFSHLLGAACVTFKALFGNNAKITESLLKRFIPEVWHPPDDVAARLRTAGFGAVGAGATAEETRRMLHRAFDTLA
Give bare numbers, as −log10 of the molar value.

Here are 9 compounds together with their reported answers.
COc1ccc2c(O)c(C(=O)NCc3ccc(Cl)cc3)cnc2c1 [Example 7] : 5.26
CC(C)(O)CCc1cc(F)c2ncc(C(=O)NCc3ccc(Cl)cc3)c(O)c2c1 [Example 106] : 4.79
O=C(NCc1ccc(Cl)cc1)c1cnc2c(F)cc(C#CCO)cc2c1O [Example 53] : 6.19
O=C(NCc1ccc(Cl)cc1)c1c[nH]c2ccc(/C=C/CO)cc2c1=O [Example 136] : 6.15
O=C(NCc1ccc(Cl)cc1)c1cnc2c(F)cc(F)c(F)c2c1O [Example 168] : 5.08
CC(O)CCc1ccc2ncc(C(=O)NCc3ccc(Cl)cc3)c(O)c2c1 (centres unmarked) [Example 157] : 5.74
Nc1ccc2ncc(C(=O)NCc3ccc(Cl)cc3)c(O)c2c1 [Example 28] : 4.71
O=C(NCc1ccc(Cl)cc1)c1cnc2ccccc2c1O [Example 6] : 5.64
O=C(NCc1ccc(Cl)cc1)c1cnc2ccc(CCCO)cc2c1O [Example 144] : 6.55

Exam item: Report measured pIC50; entry is O=C(NCc1ccc(Cl)cc1)c1cnc2ccc(C#CCO)cc2c1O [Example 134]
Marked response: 6.14
